# TEST_SUMMARY: Apparent oral clearance in Papua new Guinean women in second or third trimester of pregnancy using pharmacokinetic base model at 450 mg/day, po administered as three divided doses in presence of sulfadoxine-pyrimethamine by HPLC method
# Assay type: ADME, organism-based
# CONDITION_DETAILS: female, human, in vivo
QUANTITY_KIND: CL/F
Output should be the measured figure followed by the unit it is expressed in.

Input CCN(CC)CCCC(C)Nc1ccnc2cc(Cl)ccc12 (stereo unspecified) [CHLOROQUINE] . Output CL/F: 568 mL/min

----------
# TEST_SUMMARY: Cmax in women at 450 mg/day, po administered as three divided doses by HPLC method
# Format: ADME, organism-based
# Set-up: dose 450 mg/day, route oral
# CONDITION_DETAILS: female, human, in vivo
QUANTITY_KIND: Cmax (ng/mL)
State just the number; it will be interpreted in ng/mL.

Measured Cmax of CCN(CC)CCCC(C)Nc1ccnc2cc(Cl)ccc12 (stereo unspecified) [CHLOROQUINE] : 376

----------
# TEST_SUMMARY: AUC (0 to infinity) in women at 450 mg/day, po administered as three divided doses by HPLC method
# Assay type: ADME, organism-based
# Design: dose 450 mg/day, time infinity, route oral
# CONDITION_DETAILS: female, human, plasma
QUANTITY_KIND: AUC(0-inf) (ng·h/mL)
Report the figure in ng·h/mL without appending any unit label.

The recorded AUC(0-inf) for entry CCN(CC)CCCC(C)Nc1ccnc2cc(Cl)ccc12 (stereo unspecified) equals 50000

----------
# TEST_SUMMARY: AUC (0 to infinity) in Papua new Guinean pregnant women at 450 mg/day, po administered as three divided doses by HPLC method
# Assay type: ADME, organism-based
# Parameters: dose 450 mg/day, time infinity, route oral
# CONDITION_DETAILS: female, human, plasma
QUANTITY_KIND: AUC(0-inf) (µg·h/mL)
Reply with just the number (in µg·h/mL).

// sample CCN(CC)CCCC(C)Nc1ccnc2cc(Cl)ccc12 (stereo unspecified) [CHLOROQUINE] , its AUC(0-inf) was 35.7

----------
# TEST_SUMMARY: Apparent oral clearance in Papua new Guinean women in second or third trimester of pregnancy using pharmacokinetic final covariate model at 450 mg/day, po administered as three divided doses in presence of sulfadoxine-pyrimethamine by HPLC method
# Assay type: ADME, organism-based
# CONDITION_DETAILS: female, human, in vivo
QUANTITY_KIND: CL/F (mL/min)
Field format: number, assumed mL/min, no unit text.

Noted for CCN(CC)CCCC(C)Nc1ccnc2cc(Cl)ccc12 (stereo unspecified) [CHLOROQUINE] : its CL/F reads 488

----------
# TEST_SUMMARY: Cmax in Papua new Guinean pregnant women at 450 mg/day, po administered as three divided doses by HPLC method
# Type: ADME, organism-based
# Set-up: dose 450 mg/day, route oral
# CONDITION_DETAILS: female, human, in vivo
QUANTITY_KIND: Cmax (ng/mL)
Write the value in ng/mL as a bare number.

Form field Cmax, entry CCN(CC)CCCC(C)Nc1ccnc2cc(Cl)ccc12 (stereo unspecified) : 296

----------
# TEST_SUMMARY: Cmax in Papua new Guinean pregnant women at 600 mg/day, po administered as three divided doses by HPLC method
# Type: ADME, organism-based
# Parameters: dose 600 mg/day, route oral
# CONDITION_DETAILS: female, human, in vivo
QUANTITY_KIND: Cmax (ng/mL)
Report the value in ng/mL with no unit label.

Field Cmax (entry CCN(CC)CCCC(C)Nc1ccnc2cc(Cl)ccc12 (stereo unspecified) ) reads 395
